readout-type: melting point

>>> df
                                   molecule  endpoint_value
0  O=c1c2ccccc2nc(CN2CCCC2)n1N=Cc1ccccc1 [Compound 15]   108 to 110 °C
1  O=c1c2ccccc2nc(CN2CCOCC2)n1N=Cc1ccc(Cl)cc1 [Compound 28]   140 to 142 °C
2  CCN(CC)Cc1nc2ccccc2c(=O)n1N=Cc1ccc(OC)cc1 [Compound 12]   102 to 104 °C
3  COc1ccc(C=Nn2c(CN3CCCC3)nc3ccccc3c2=O)cc1 [Compound 18]   118 to 120 °C

Turning now to a further molecule:
Task: Fill in: melting point of O=c1c2ccccc2nc(CN2CCCCC2)n1N=Cc1ccc([N+](=O)[O-])cc1 [Compound 26] is ___
Result: 180 to 182 °C
